Data provenance is patent US7115629B2.

assayed_system: human M2 receptors (Homo sapiens)
Construct: purchased Receptor Biology; host or cells: CHO-K1 cells transfected with the human receptor (membranes)
Sequence (P08172 whole entry): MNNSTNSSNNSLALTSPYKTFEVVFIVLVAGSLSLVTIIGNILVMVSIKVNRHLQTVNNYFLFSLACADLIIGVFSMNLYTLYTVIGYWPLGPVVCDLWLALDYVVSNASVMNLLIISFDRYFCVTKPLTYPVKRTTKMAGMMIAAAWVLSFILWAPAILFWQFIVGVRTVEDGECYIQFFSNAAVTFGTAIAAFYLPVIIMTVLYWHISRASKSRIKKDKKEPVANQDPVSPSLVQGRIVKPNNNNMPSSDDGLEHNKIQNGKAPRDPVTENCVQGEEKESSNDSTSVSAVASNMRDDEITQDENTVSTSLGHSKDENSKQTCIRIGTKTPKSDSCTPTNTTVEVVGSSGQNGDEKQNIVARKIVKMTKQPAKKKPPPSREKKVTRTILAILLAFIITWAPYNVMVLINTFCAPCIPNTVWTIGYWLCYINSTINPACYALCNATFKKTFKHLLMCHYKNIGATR
measurement_notes: Binding test to cloned human M2 muscarinic receptor ([3H]-NMS displacement, CHO-K1 membranes), reported as M2/M3 ratio
condition_context: value greater than 1 indicates selectivity for the M3 receptor
# key: entry, value: M2/M3 (ratio between M2 and M3 receptor affinities)
API doc: respond with a numeric literal and nothing else, no unit.

Below: 3 molecules and their reported M2/M3 (ratio between M2 and M3 receptor affinities).
NC(=O)c1ccc(CN(C(=O)OC2CN3CCC2CC3)c2ccccc2)cc1 (stereo not shown) [Example 44]    6
O=C(OC1CN2CCC1CC2)N(Cc1ccccc1Br)c1ccccc1 (stereo not shown) [Example 16]    13
O=C(OC1CN2CCC1CC2)N(Cc1ccccc1)c1ccccc1O (stereo not shown) [Example 14]    21

From here, focus on the item given below.
Query: Name the reported M2/M3 (ratio between M2 and M3 receptor affinities) value associated with the molecule Cc1cccc(N(Cc2cc(F)cc(F)c2)C(=O)OC2CN3CCC2CC3)c1 (stereo not shown) [Example 30]
Reply: 74
